System: CCRIS mutagenicity, Ames/micronucleus/aberration tests
Assay: CCRIS mutagenicity studies
Conditions: Test System: AMES SALMONELLA TYPHIMURIUM; Strain/Indicator: TA104; Metabolic Activation: RAT, LIVER, S-9, PHENOBARBITAL AND 5,6-BENZOFLAVONE; Method: PREINCUBATION
Text: The CCRIS database contains chemical records with carcinogenicity, mutagenicity, tumor promotion, and tumor inhibition test results. It was developed by the National Cancer Institute (NCI). Data are derived from studies cited in primary journals, current awareness tools, NCI reports, and other sources. Test results have been reviewed by experts in carcinogenesis and mutagenesis. CCRIS provides historical information from the years 1985 - 2011. It is no longer updated. […]
Calls of active or inactive are those of the source. No rule for the calls is given here.
Parameter call: string, one of active, inactive

INSERT INTO assay_data (compound_structure_string, tested_target, group) VALUES
  ('O=C1C=CC(=O)C=C1', 'CCRIS mutagenicity, Ames/micronucleus/aberration tests', 'inactive');

What did the test return for O=C1C=CC(=O)c2ccccc21 ?
active

What did the test return for O=C1C=CC(=O)C(c2ccccc2)=C1 ?
inactive

What did the test return for O=C1C=CC(=O)c2c(O)c(Cl)c(Cl)c(O)c21 ?
active

What did the test return for O=C1C=C(Nc2ccccc2)C(=O)c2ccccc21 ?
active

What did the test return for O=c1ccc(=O)c2c(=O)c(Cl)c(Cl)c(=O)c1=2 ?
active

What did the test return for CC1=CC(=O)C(C(C)C)=CC1=O ?
inactive
